All values here come from patent US11299485B2.

Measured cell survival rate (% of control) PBMC by item
Tested on: human peripheral blood mononuclear cells (PBMC)
PROTOCOL_TEXT: Cytotoxicity test using human peripheral blood mononuclear cells (PBMC)
Format: cell-based
RECORDED_CONDITIONS: compound 10 μg/mL, LPS, 24 hr, WST-1 or WST-8
VALUE_KIND: cell survival rate (% of control) PBMC

• O=C1CCC(n2nnc(-c3ccsc3)c2Cl)C(=O)N1 (stereo not shown) = 112 % of control
• O=C1CCC(n2cc(-c3cscc3OCc3cccnc3)nn2)C(=O)N1 (stereo not shown) = 100 % of control
• O=C1CCC(n2cc(-c3cscc3Cl)nn2)C(=O)N1 (stereo not shown) = 113 % of control
• COc1sccc1-c1cn(C2CCC(=O)NC2=O)nn1 (stereo not shown) = 53 % of control
• O=C1CCC(n2cc(-c3cscc3Br)nn2)C(=O)N1 (stereo not shown) = 106 % of control
• CC(C)Oc1cscc1-c1cn(C2CCC(=O)NC2=O)nn1 (stereo not shown) = 42 % of control
• O=C1CCC(n2cc(-c3cscc3OCc3ccc(Cl)cc3)nn2)C(=O)N1 (stereo not shown) = 98 % of control
• O=C1CCC(n2cc(-c3cccs3)nn2)C(=O)N1 (stereo not shown) = 89 % of control
• COc1c(-c2cn(C3CCC(=O)NC3=O)nn2)csc1C (stereo not shown) = 105 % of control
• COc1cscc1-c1cn(C2CCC(=O)NC2=O)nn1 (stereo not shown) = 99 % of control
• O=C1CCC(n2cc(-c3cscc3OCc3ccccc3CN3CCOCC3)nn2)C(=O)N1 (stereo not shown) = 96 % of control
• CCCCOc1cscc1-c1cn(C2CCC(=O)NC2=O)nn1 (stereo not shown) = 118 % of control
• O=C1CCC(n2cc(-c3cscc3OCc3cc4ccccc4s3)nn2)C(=O)N1 (stereo not shown) = 106 % of control
• CCOc1cscc1-c1cn(C2CCC(=O)NC2=O)nn1 (stereo not shown) = 49 % of control
• O=C1CCC(n2cc(-c3ccc(Br)s3)nn2)C(=O)N1 (stereo not shown) = 101 % of control
• Cl.O=C1CCC(n2cc(-c3cscc3OCc3ccc(CN4CCCCC4)cc3)nn2)C(=O)N1 (stereo not shown) = 103 % of control
• COC(=O)c1scc(-c2cn(C3CCC(=O)NC3=O)nn2)c1OC (stereo not shown) = 90 % of control
• O=C1CCC(n2nnc(-c3ccsc3)c2Br)C(=O)N1 (stereo not shown) = 138 % of control
• O=C1CCC(n2cc(-c3cscc3OCc3cccc(CN4CCOCC4)c3)nn2)C(=O)N1 (stereo not shown) = 98 % of control
